Catalogue of compounds with associated pIC50
- Test system: HepG2
- Protocol description: Cytotoxicity against human HepG2 cells assessed as reduction in cell growth after 3 days by MTT assay
- Format: functional, cell-based
- Assay context: HepG2, 72 h
pIC50: −log10 of the molar value.
Endpoint name: pIC50

Molecular string | Observed
CN[C@@H](C(=O)N[C@H](C(=O)N(C)[C@H](/C=C(\C)C(=O)O)C(C)C)C(C)(C)C)C(C)(C)c1ccc(Br)cc1 | 7.89
CN[C@@H](C(=O)N[C@H](C(=O)N(C)[C@H](/C=C(\C)C(=O)O)C(C)C)C(C)(C)C)C(C)(C)c1coc2ccccc12 | 7.43
CN[C@@H](C(=O)N[C@H](C(=O)N(C)[C@H](/C=C(\C)C(=O)O)C(C)C)C(C)(C)C)C(C)(C)c1ccc2ccccc2c1 | 7.47
CCOC(=O)/C(C)=C/[C@H](C(C)C)N(C)C(=O)[C@@H](NC(=O)[C@@H](NC)C(C)(C)c1ccc(Br)cc1)C(C)(C)C | 8.22

Ref: ChEMBL document CHEMBL3351904
